ASSAY PROCEDURE: Binding affinity to GppNHp-bound N-terminal His6-tagged KRAS4B G12D mutant (1 to 169 residues) (unknown origin) by isothermal titration calorimetry
Design: species or system Homo sapiens
pKd: −log10 of the molar value.

{"columns": ["SMILES STRING", "pKd"],
 "data": [
  ["NC1(C(=O)NCCCn2cc(-c3ccc(OC(F)(F)F)cc3)c3cc(CN4CCN(Cc5c(Cl)cccc5Cl)CC4)ccc32)CCNCC1", 5.05]
]}

###

ASSAY PROCEDURE: Oral bioavailability in BALB/c mouse at 10 mg/kg by LC-MS/MS analysis
Type: ADME, organism-based
MEASUREMENT PARAMETERS: in vivo

{"columns": ["SMILES STRING", "bioavailability"],
 "data": [
  ["C=CC(=O)N1CC(N2CCN(C(=O)CNc3cc(C4(C)CC4)c(Cl)cc3O)CC2)C1", "> 60%"]
]}
